Reference source: patent US9868746B2

The compounds listed here are annotated with their Emax at 30 µM.
# Target: mAChR M4 (Homo sapiens, UniProt P08173)
# Construct: expressed in transfected cells; host or cells: CHO-K1 cells stably transfected with M4 cDNA and chimeric G-protein Gqi5
# Sequence (P08173 whole entry): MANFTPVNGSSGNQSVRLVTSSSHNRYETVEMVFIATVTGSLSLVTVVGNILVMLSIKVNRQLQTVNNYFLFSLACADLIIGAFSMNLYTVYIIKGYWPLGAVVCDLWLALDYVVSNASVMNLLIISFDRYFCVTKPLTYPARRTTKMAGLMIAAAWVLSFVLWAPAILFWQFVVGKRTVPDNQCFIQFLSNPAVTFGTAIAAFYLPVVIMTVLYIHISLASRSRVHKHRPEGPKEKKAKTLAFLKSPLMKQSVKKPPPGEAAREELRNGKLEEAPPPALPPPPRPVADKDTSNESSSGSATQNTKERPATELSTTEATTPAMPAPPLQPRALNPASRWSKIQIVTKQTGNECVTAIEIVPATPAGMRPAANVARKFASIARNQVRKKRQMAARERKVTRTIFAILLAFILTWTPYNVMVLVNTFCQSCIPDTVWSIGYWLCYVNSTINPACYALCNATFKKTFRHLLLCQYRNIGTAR
# Assay summary: mAChR M4 cell-based functional assay (calcium mobilization, potentiation of EC20 acetylcholine response)
# Condition info: % ACh maximum at 30 μM

Answered cases to consult:
{"columns": ["Compound", "Target", "Recorded measurement"],
 "data": [
  ["Cc1nc(C)c(S(=O)(=O)N2CC(NC(=O)c3sc4nnc(C)c(C)c4c3N)C2)s1 [Example B103]", "mAChR M4 (Homo sapiens, UniProt P08173)", "69%"],
  ["Cc1ccc(C(=O)NC2CCN(C(=O)c3sc4nnc(C)c(C)c4c3N)C2)cc1 (stereo not shown) [Example B225]", "mAChR M4 (Homo sapiens, UniProt P08173)", "62%"],
  ["Cc1nnc2sc(C(=O)N3CCC4(CN(C(=O)OC(C)(C)C)C4)C3)c(N)c2c1C [Example B194]", "mAChR M4 (Homo sapiens, UniProt P08173)", "30%"]
]}

Next compound, Emax at 30 µM to be filled in.
Request: Look up Emax at 30 µM: Cc1nnc2sc(C(=O)N3CC4CN(c5cccc(Br)n5)CC4C3)c(N)c2c1C (stereo not shown) [Example B437]
Response: 54%

====

# Target: mAChR M4 (Homo sapiens)
# Construct: expressed in transfected cells; host or cells: CHO-K1 cells stably transfected with M4 cDNA and chimeric G-protein Gqi5
# Assay summary: mAChR M4 cell-based functional assay (calcium mobilization, potentiation of EC20 acetylcholine response)
# Condition info: % ACh maximum at 30 μM
Measure name: Emax at 30 µM (%)
Report as a plain number; the unit % is understood.

Answered cases to consult:
{"columns": ["Molecule", "Emax at 30 µM, %"],
 "data": [
  ["Cc1nnc2sc(C(=O)NCc3ccnc(C#N)c3)c(N)c2c1C", 69],
  ["Cc1ccc(S(=O)(=O)NC2CN(C(=O)c3sc4nnc(C)c(C)c4c3N)C2)cc1", 47],
  ["Cc1nnc2sc(C(=O)NCc3ccc4c(c3)OCO4)c(N)c2c1C", 90],
  ["Cc1nnc2sc(C(=O)N3CC(O)(c4ccccc4)C3)c(N)c2c1C", 33],
  ["COc1ccc(CNC(=O)c2sc3nnc(C)c(C)c3c2N)nc1", 54],
  ["Cc1nnc2sc(C(=O)N3CC4(C3)CN(S(=O)(=O)c3ccccc3)C4)c(N)c2c1C", 47],
  ["Cc1nnc2sc(C(=O)NCc3ccc(-c4cncnc4)cc3)c(N)c2c1C", 65],
  ["Cc1nnc2sc(C(=O)N3CC4CN(c5ccc(C#N)nc5)CC4C3)c(N)c2c1C (stereo not drawn)", 49],
  ["Cc1ccc(OC(=O)N2CC(NC(=O)c3sc4nnc(C)c(C)c4c3N)C2)cc1", 67],
  ["Cc1nnc2sc(C(=O)N3CC4CN(C(=O)OC(C)(C)C)CC4C3)c(N)c2c1C (stereo not drawn)", 53]
]}

Request: Provide the documented Emax at 30 µM with mAChR M4 (Homo sapiens) as the system for Cc1nnc2sc(C(=O)NC3CN(C(=O)N4CCCCC4)C3)c(N)c2c1C
Response: 58

Request: Provide the documented Emax at 30 µM with mAChR M4 (Homo sapiens) as the system for Cc1nnc2sc(C(=O)NC3CN(S(=O)(=O)c4ccccc4F)C3)c(N)c2c1C
Response: 72
